# credit: patent US11939319B2

- target.or.system: GPR17 (Homo sapiens)
- Sequence (Q13304 29-367 limits assumed): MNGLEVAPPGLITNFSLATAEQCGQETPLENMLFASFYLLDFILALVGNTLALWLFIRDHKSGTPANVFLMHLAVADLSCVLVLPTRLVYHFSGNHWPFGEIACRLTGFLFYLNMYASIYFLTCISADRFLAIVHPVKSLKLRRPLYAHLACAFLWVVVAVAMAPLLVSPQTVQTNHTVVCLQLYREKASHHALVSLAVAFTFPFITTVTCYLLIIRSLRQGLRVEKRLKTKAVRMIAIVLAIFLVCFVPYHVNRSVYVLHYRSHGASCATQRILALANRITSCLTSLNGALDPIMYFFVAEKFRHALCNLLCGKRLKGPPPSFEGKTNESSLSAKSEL
- protocol: Calcium mobilization functional assay (Ca2+ assay) in CHO hGPR17 cells
- Format: cell-based
- Parameters: host or cells: Flp-In T-REx CHO cells, expression induced with doxycycline
- test.conditions: inhibition of 50 nM MDL29,951 (GPR17 agonist), activity range, read-out: Ca^2+ assay pIC50 (converted)
endpoint: IC50

// worked examples, IC50 included
COc1nc(F)c(NS(=O)(=O)c2c[nH]c3cc(Cl)ccc23)cc1F    3.16 to 31.6 nM
COc1nc(OC)c(NS(=O)(=O)c2c[nH]c3cc(Cl)ccc23)cc1F    ≤ 3.16 nM
COc1ccc(NS(=O)(=O)c2c[nH]c3c2ccc2ccccc23)c(OC)n1    31.6 to 316 nM

Problem: Lab note: need IC50 for `N#Cc1ccc(NS(=O)(=O)c2c[nH]c3cc(Cl)ccc23)cn1` on GPR17 (Homo sapiens), anyone have it?
Result: 31.6 to 316 nM

Problem: Form field - read-out: IC50; system: GPR17 (Homo sapiens); submitted item: `O=S(=O)(Nc1cc(F)c(Cl)nc1F)c1c[nH]c2cc(Cl)ccc12`
Result: ≤ 3.16 nM
